- study system: Adenosine receptor A1 (Homo sapiens) (UniProt P30542)
- Sequence (whole entry): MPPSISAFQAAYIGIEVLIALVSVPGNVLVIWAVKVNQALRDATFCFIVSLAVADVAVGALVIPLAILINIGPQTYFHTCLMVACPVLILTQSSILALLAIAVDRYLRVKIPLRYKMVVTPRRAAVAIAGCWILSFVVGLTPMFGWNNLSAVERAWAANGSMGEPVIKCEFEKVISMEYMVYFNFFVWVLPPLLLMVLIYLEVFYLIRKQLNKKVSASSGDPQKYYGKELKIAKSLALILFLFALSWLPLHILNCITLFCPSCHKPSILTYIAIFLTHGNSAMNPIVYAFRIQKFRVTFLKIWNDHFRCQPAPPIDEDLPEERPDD
- experiment description: Displacement of [3H]DPCPX from human adenosine A1 receptor expressed in CHO cells at 10 uM after 60 mins by beta scintillation counting
- Type: cell-based
readout type: inhibition (%)

Here is how some compounds turned out for inhibition.
O=C(O)CNC(=O)c1cc2ccccc2oc1=O    1
COc1cccc2cc(C(=O)NC3CCCCC3)c(=N)oc12    40
O=C(NCCCN1CCN(CCCNC(=O)c2cc3ccccc3oc2=O)CC1)c1cc2ccccc2oc1=O    9

1: CCC(CO)NC(=O)c1cc2cc(Cl)ccc2oc1=N (centres undefined)
2: COc1cccc2cc(C(=O)NCC(=O)O)c(=O)oc12
3: N=c1oc2ccc(Br)cc2cc1C(=O)NC1CCCC1
4: COc1cccc2cc(C(=O)NCC(O)c3ccccc3)c(=N)oc12 (centres undefined)
Order the records by inhibition, with each subsequent value no larger than the one before. Order the labels as requested and list them.
4, 2, 3, 1
(4: 55%, 2: 27%, 3: 17%, 1: 7%)

P: COc1cccc2cc(C(=O)NC(CO)(CO)CO)c(=N)oc12
Q: COc1cccc2cc(C(=O)NCCCNC(=O)c3cc4cccc(OC)c4oc3=N)c(=N)oc12
R: COc1cccc2cc(C(=O)NCCO)c(=O)oc12
Hi! Can you put these in order of inhibition, lowest number first? Order the labels as requested and list them.
R, P, Q
(R: 12%, P: 19%, Q: 31%)

P: COc1cccc2cc(C(=O)NCCCOCCCCOCCCNC(=O)c3cc4cccc(OC)c4oc3=N)c(=N)oc12
Q: COCCNC(=O)c1cc2cccc(OC)c2oc1=O
// task: argmin of inhibition over [ P , Q ] Kindly give the label for the entry you pick.
P

---

- study system: Adenosine receptor A2a (Homo sapiens, UniProt P29274)
- Sequence (P29274 whole entry): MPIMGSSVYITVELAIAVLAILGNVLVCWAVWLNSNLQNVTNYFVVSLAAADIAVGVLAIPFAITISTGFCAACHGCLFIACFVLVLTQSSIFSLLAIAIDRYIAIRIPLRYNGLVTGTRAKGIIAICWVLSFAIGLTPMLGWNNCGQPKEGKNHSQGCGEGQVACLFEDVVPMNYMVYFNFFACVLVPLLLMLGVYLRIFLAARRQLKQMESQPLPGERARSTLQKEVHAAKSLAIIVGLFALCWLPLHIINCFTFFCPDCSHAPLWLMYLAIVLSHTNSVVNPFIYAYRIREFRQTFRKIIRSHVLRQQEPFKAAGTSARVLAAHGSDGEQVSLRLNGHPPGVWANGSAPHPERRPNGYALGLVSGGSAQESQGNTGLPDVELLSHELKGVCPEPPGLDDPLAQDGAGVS
- experiment description: Displacement of [3H]ZM241385 from human adenosine A2A receptor expressed in human HeLa cells at 10 uM after 30 mins by beta scintillation counting
- Assay type: cell-based
readout type: inhibition

Given the entry "CCOC(CNC(=O)c1cc2cccc(OC)c2oc1=N)OCC" , report its measured inhibition.
> 70%

Given the entry "COc1cccc2cc(C(=O)NC3CCCC3)c(=N)oc12" , report its measured inhibition.
> 70%

---

- study system: Adenosine receptor A1 (Homo sapiens)
- experiment description: Displacement of [3H]DPCPX from human adenosine A1 receptor expressed in CHO cells at 10 uM after 60 mins by beta scintillation counting
- Assay type: cell-based
readout type: inhibition (%)

O=C(NCC(O)CO)c1cc2cccc(O)c2oc1=O (configuration not stated)    4
CCC(CO)NC(=O)c1cc2cc(Br)ccc2oc1=N (configuration not stated)    20

1: CCC(CO)NC(=O)c1cc2cccc(OC)c2oc1=N (configuration not stated)
2: O=C(NC1CCCC1)c1cc2ccccc2oc1=O
3: COc1cccc2c1OC(C)(O)C(C(C)=O)=C2 (configuration not stated)
4: COc1cccc2cc(C(=O)NCCCCCO)c(=N)oc12
5: N=c1oc2ccc(Br)cc2cc1C(=O)NCC(O)CO (configuration not stated)
Hi! Can you put these in order of inhibition, lowest number first? Order the labels as requested and list them.
3, 5, 2, 1, 4
(3: 6%, 5: 11%, 2: 16%, 1: 24%, 4: 44%)

I: COc1cc(Br)cc2cc(C(=O)NCCCO)c(=N)oc12
II: COc1cccc2cc(C(=O)NCCCO)c(=N)oc12
Pick one: I or II . Which has the bigger inhibition number? Kindly give the label for the entry you pick.
II
(II: 47%, I: 31%)

---

- study system: Adenosine receptor A2a (Homo sapiens, UniProt P29274)
- experiment description: Displacement of [3H]ZM241385 from human adenosine A2A receptor expressed in human HeLa cells at 10 uM after 30 mins by beta scintillation counting
- Format: cell-based
readout type: inhibition

COc1cccc2cc(C(=O)Nc3c(C#N)ncn3-c3ccc(F)cc3)c(=N)oc12    > 70%

Given the entry COc1cccc2c1OC(C)(O)C(C(C)=O)=C2 (stereo unspecified) , report its measured inhibition.
10%

Given the entry "COc1cccc2cc(C(=O)NCCCO)c(=N)oc12" , report its measured inhibition.
> 70%

Given the entry "COc1cccc2cc(C(=O)NCCCNC(=O)c3cc4cccc(OC)c4oc3=N)c(=N)oc12" , report its measured inhibition.
> 70%

Given the entry "COc1cccc2cc(C(=O)NCCCN3CCN(CCCNC(=O)c4cc5cccc(OC)c5oc4=N)CC3)c(=N)oc12" , report its measured inhibition.
> 70%

Given the entry "COc1cccc2cc(C(=O)NCCCCCO)c(=N)oc12" , report its measured inhibition.
> 70%

---

- study system: Adenosine receptor A1 (Homo sapiens) (UniProt P30542)
- Sequence (whole entry): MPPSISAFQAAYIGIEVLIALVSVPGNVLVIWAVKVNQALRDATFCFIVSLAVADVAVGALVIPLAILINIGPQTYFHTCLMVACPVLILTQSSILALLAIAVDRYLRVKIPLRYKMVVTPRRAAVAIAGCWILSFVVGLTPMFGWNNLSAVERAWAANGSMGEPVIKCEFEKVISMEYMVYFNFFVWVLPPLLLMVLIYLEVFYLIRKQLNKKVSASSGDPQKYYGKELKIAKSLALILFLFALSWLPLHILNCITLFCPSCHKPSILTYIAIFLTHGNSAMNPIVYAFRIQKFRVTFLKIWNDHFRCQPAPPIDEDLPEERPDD
- experiment description: Displacement of [3H]DPCPX from human adenosine A1 receptor expressed in CHO cells at 10 uM after 60 mins by beta scintillation counting
- Type: cell-based
readout type: inhibition

Here is how some molecules turned out for inhibition.
COc1cccc2cc(C(=O)NCCCN3CCN(CCCNC(=O)c4cc5cccc(OC)c5oc4=N)CC3)c(=N)oc12    > 70%
COC(=O)/C(C#N)=C/c1cccc(OC)c1O    > 70%
COc1cccc2cc(C(=O)Nc3c(C#N)ncn3-c3ccc(C#N)cc3)c(=N)oc12    18%

Given the entry "N=c1oc2ccc(Br)cc2cc1C(=O)NCCCO" , report its measured inhibition.
32%

Given the entry "COc1cccc2cc(C(=O)NCCc3ccc(O)cc3)c(=N)oc12" , report its measured inhibition.
35%

Given the entry "COc1cccc2cc(C(N)=O)c(=N)oc12" , report its measured inhibition.
> 70%

Given the entry "COCCNC(=O)c1cc2cccc(OC)c2oc1=N" , report its measured inhibition.
> 70%

Given the entry "COc1cccc2cc(C(=O)NC3CCCC3)c(=N)oc12" , report its measured inhibition.
> 70%
